Tested on: two-spotted mite (Tetranychus urticae (Koch)), adults and nymphal stages
protocol: Mite Foliage Spray Test (adult miticidal)
Format: in vivo
condition_details: Tetranychus urticae, foliar; Table II; read-out: Miticidal LD50, Adult (ppm required for a 50 percent kill of mites)
readout_type: log10(LC50) (log10 of the value in µg/mL)
Please be aware that the numbers have been log10-transformed from LC50 in µg/mL.

Reference set (5 entries):
Exercise: Write down measured log10(LC50) (two-spotted mite (Tetranychus urticae (Koch)), adults and nymphal stages) for this compound. Cc1ccccc1C1C(=O)c2ccccc2C1=O [Reference I Page 3, Compound 1, reference compound]
Key: 2.30

Exercise: Report its log10(LC50) with two-spotted mite (Tetranychus urticae (Koch)), adults and nymphal stages as the test system: Cc1ccc(C)c(C2C(=O)c3ccccc3C2=O)c1 [Reference II Page 146, Compound 6, reference compound]
Key: 2.70

Exercise: Fill in: log10(LC50) on two-spotted mite (Tetranychus urticae (Koch)), adults and nymphal stages, entry Cc1ccc(C2C(=O)c3ccccc3C2=O)c(C)c1 [Reference II Page 146, Compound 9, reference compound]
Key: 1.60

Exercise: Answer briefly: log10(LC50) recorded on two-spotted mite (Tetranychus urticae (Koch)), adults and nymphal stages for Cc1ccc(C2C(=O)CCC2=O)c(C)c1 [CH3 CH3 H H H]
Key: 1.18

Exercise: Using two-spotted mite (Tetranychus urticae (Koch)), adults and nymphal stages as the test system, report measured log10(LC50) of Cc1ccccc1C1C(=O)C2CCCCC2C1=O (centres unmarked) [CH3 H H (CH2)4] .
Key: 1.08

---
Exercise: Write down the reported log10(LC50) (system: two-spotted mite (Tetranychus urticae (Koch)), adults and nymphal stages) of Cc1ccc(C)c(C2C(=O)C3CCCCC3C2=O)c1 (centres unmarked) [CH3 H CH3 (CH2)4]
Key: 1.54

Exercise: Under two-spotted mite (Tetranychus urticae (Koch)), adults and nymphal stages: report log10(LC50) of Cc1ccccc1C1C(=O)CCC1=O [CH3 H H H H] .
Key: 1.95

Exercise: Provide log10(LC50), system two-spotted mite (Tetranychus urticae (Koch)), adults and nymphal stages, entry Cc1ccc(C2C(=O)C3CCCCC3C2=O)c(C)c1 (centres unmarked) [CH3 CH3 H (CH2)4]
Key: 0.85

###

System: Bean
protocol: Post-emergent herbicidal test, bean
Assay type: in vivo
Set-up: key: 1: no perceptible injury; 2: intermediate degrees of injury based upon the number and extent to which leaves were injured; 3: intermediate degrees of injury based upon the number and extent to which leaves were injured; 4: intermediate degrees of injury based upon the number and extent to which leaves were injured; 5: the plant was dead
condition_details: Table I; 2500 parts per million; after ten days
Reported values of Post-Emergent Herbicidal, Bean (injury rating) for individual entries
Just the number, please, no unit after it.

Exercise: Supply Post-Emergent Herbicidal, Bean (injury rating) value. Item: Cc1ccccc1C1C(=O)C2CCCCC2C1=O (stereo not drawn) [CH3 H H (CH2)4]
Key: 2

Exercise: Provide measured Post-Emergent Herbicidal, Bean (injury rating) value, entry: Cc1ccc(C)c(C2C(=O)CC(C)C2=O)c1 (stereo not drawn) [CH3 H CH3 CH3 H]
Key: 2

Exercise: Quick one: give measured Post-Emergent Herbicidal, Bean (injury rating) for O=C1CCC(=O)C1c1ccccc1Cl [Cl H H H H]
Key: 3

Exercise: Return Post-Emergent Herbicidal, Bean (injury rating) (reported value) for this compound: Cc1ccc(C2C(=O)CCC2=O)c(C)c1 [CH3 CH3 H H H]
Key: 1

Exercise: Report Post-Emergent Herbicidal, Bean (injury rating) for Cc1ccc(C)c(C2C(=O)C3CCCCC3C2=O)c1 (stereo not drawn) [CH3 H CH3 (CH2)4]
Key: 1

Others:
Exercise: Note down Post-Emergent Herbicidal, Bean (injury rating) recorded for Cc1ccc(C)c(C2C(=O)CCC2=O)c1 [CH3 H CH3 H H]
Key: 2

Exercise: Determine its reported Post-Emergent Herbicidal, Bean (injury rating): Cc1ccccc1C1C(=O)CCC1=O [CH3 H H H H]
Key: 3

Exercise: Name the recorded Post-Emergent Herbicidal, Bean (injury rating) of the item O=C1CCC(=O)C1c1ccc(Cl)cc1Cl [Cl Cl H H H] in your answer.
Key: 1

Exercise: Please report the measured Post-Emergent Herbicidal, Bean (injury rating) for Cc1ccc(C2C(=O)C3CCCCC3C2=O)c(C)c1 (stereo not drawn) [CH3 CH3 H (CH2)4]
Key: 1
